experimental.parameters: in isopropanol, 298.15 K
quantity.kind: solubility (mole fraction)

- CS(=O)(=O)c1ccc([C@@H](O)[C@@H](CO)NC(=O)C(Cl)Cl)cc1: 0.000146

---

experimental.parameters: in toluene, 298.15 K
quantity.kind: solubility (mole fraction)

* CS(=O)(=O)c1ccc([C@@H](O)[C@@H](CO)NC(=O)C(Cl)Cl)cc1 | 1.89e-05

---

experimental.parameters: in n-propanol, 283.15 K
quantity.kind: solubility (mole fraction)

* CS(=O)(=O)c1ccc([C@@H](O)[C@@H](CO)NC(=O)C(Cl)Cl)cc1 | 7.34e-05

---

experimental.parameters: in methanol, 303.15 K
quantity.kind: solubility (mole fraction)

• CS(=O)(=O)c1ccc([C@@H](O)[C@@H](CO)NC(=O)C(Cl)Cl)cc1 = 0.00141

---

experimental.parameters: in acetonitrile, 318.15 K
quantity.kind: solubility (mole fraction)

* CS(=O)(=O)c1ccc([C@@H](O)[C@@H](CO)NC(=O)C(Cl)Cl)cc1 | 0.00134

---

experimental.parameters: in 2-butanone, 298.15 K
quantity.kind: solubility (mole fraction)

- CS(=O)(=O)c1ccc([C@@H](O)[C@@H](CO)NC(=O)C(Cl)Cl)cc1: 0.00051

---

experimental.parameters: in acetonitrile, 278.15 K
quantity.kind: solubility (mole fraction)

• CS(=O)(=O)c1ccc([C@@H](O)[C@@H](CO)NC(=O)C(Cl)Cl)cc1 = 7.96e-05

---

experimental.parameters: in ethanol, 313.15 K
quantity.kind: solubility (mole fraction)

• CS(=O)(=O)c1ccc([C@@H](O)[C@@H](CO)NC(=O)C(Cl)Cl)cc1 = 0.00115

---

experimental.parameters: in water, 318.15 K
quantity.kind: solubility (mole fraction)

* CS(=O)(=O)c1ccc([C@@H](O)[C@@H](CO)NC(=O)C(Cl)Cl)cc1 | 0.000339
